Experiment: Pharmacokinetics and bioavailability in rats
Assay type: in vivo
Details: both sexes, Sprague-Dawley, rat, plasma, iv, 5 mg/kg, SD rats, IV 5 mg/kg; read-out: Cmax
Counter-ions that a name gives are not always drawn.
Property Label: Cmax (ng/mL)
Give bare numbers, in ng/mL.

Example entries and their recorded answers appear below.
Cc1ncn(-c2cc(NC(=O)c3ccc(C)c(C#Cc4cnc5[nH]ncc5c4)c3)cc(C(F)(F)F)c2)n1 [D835 hydrochloride salt] | 976
Cc1ccc(C(=O)Nc2cc(-n3ccnc3)cc(C(F)(F)F)c2)cc1C#Cc1cnc2[nH]ncc2c1 [D831 mesylate salt] | 64200
Cc1ccc(C(=O)Nc2ccc(CN3CCN(C)CC3)c(C(F)(F)F)c2)cc1C#Cc1cnc2[nH]ncc2c1 [D824 dimesylate salt] | 2240

Below are some molecules; for each one, tell me its Cmax.
1. Cc1ccc(C(=O)Nc2ccc(CN3CCN(C)CC3)c(C(F)(F)F)c2)cc1C#Cc1cnc2ccnn2c1 [D856 dimesylate salt]
2. Cc1cn(-c2cc(NC(=O)c3ccc(C)c(C#Cc4cnc5[nH]ncc5c4)c3)cc(C(F)(F)F)c2)cn1 [D767 hydrochloride salt]
3. Cc1ccc(C(=O)Nc2ccc(CN3CCN(C)CC3)c(C(F)(F)F)c2)cc1C#Cc1cnc(NC2CC2)nc1 [D825 mesylate salt, trimesylate]

Ans:
1: 934; 2: 15300; 3: 2330

---

Tested on: MOLT-4 (Human acute lymphoblastic leukemia cell line)
Assay: tumor cell proliferation, MTT or CCK8 assay, 72 h incubation
Assay type: cell-based
Settings: MOLT-4, 72 h, read-out: IC50 on tumor cell proliferation, MOLT-4
pIC50: −log10 of the molar value.
Property Label: pIC50

Quick request: pIC50 for each listed item, please.
1. Cc1cn(-c2cc(NC(=O)c3ccc(C)c(C#Cc4cnc(Nc5ccccc5)nc4)c3)cc(C(F)(F)F)c2)cn1
2. Cc1cn(-c2cc(NC(=O)c3ccc(C)c(C#Cc4cnc(NCCO)nc4)c3)cc(C(F)(F)F)c2)cn1
3. Cc1cn(-c2cc(NC(=O)c3ccc(C)c(C#Cc4cnc(NC(C)(C)C)nc4)c3)cc(C(F)(F)F)c2)cn1
4. Cc1cn(-c2cc(NC(=O)c3ccc(C)c(C#Cc4cnc(NC5CC5)nc4)c3)cc(C(F)(F)F)c2)cn1

Ans:
1: < 7.00; 2: 6.87; 3: < 7.00; 4: < 5.00

---

Test: Pharmacokinetics and bioavailability in rats
Format: in vivo
Details: both sexes, Sprague-Dawley, rat, plasma, iv, 5 mg/kg, SD rats, IV 5 mg/kg
Structures can show the parent of a compound that is named as a salt.
Property Label: AUC(0-inf) (ng·h/mL)
Answers are plain numbers, in ng·h/mL.

Look over these answered cases.
Cc1ccc(C(=O)Nc2ccc(CN3CCN(C)CC3)c(C(F)(F)F)c2)cc1C#Cc1cnc2[nH]ncc2c1 [D824 dimesylate salt] | 4300
Cc1ccc(C(=O)Nc2ccc(CN3CCN(C)CC3)c(C(F)(F)F)c2)cc1C#Cc1cnc(NC2CC2)nc1 [D825 mesylate salt, trimesylate] | 11800

Turning now to a further compound:
Q: Value lookup for AUC(0-inf); key = Cc1cn(-c2cc(NC(=O)c3ccc(C)c(C#Cc4cnc5[nH]ncc5c4)c3)cc(C(F)(F)F)c2)cn1 [D767 hydrochloride salt]
Ans: 65500

---

Test system: MOLT-4 (Human acute lymphoblastic leukemia cell line)
Assay: tumor cell proliferation, MTT or CCK8 assay, 72 h incubation
Format: cell-based
Conditions: MOLT-4, 72 h, MTT or CCK8, no unit in cell, read-out: IC50 on tumor cell proliferation, MOLT-4
pIC50: −log10 of the molar value.
Rule: Criterion met for pIC50 not less than 6, Criterion not met for anything less.

Would you please look over these solved cases?
Cc1ccc(C(=O)Nc2ccc(CN3CCOCC3)c(C(F)(F)F)c2)cc1C#Cc1cnc2ccnn2c1 | Criterion not met
Cc1ccc(C(=O)Nc2ccc(CN3CC[C@@H](N(C)C)C3)c(C(F)(F)F)c2)cc1C#Cc1cnc2ccnn2c1 | Criterion not met
Cc1ccc(C(=O)Nc2ccc(CN3CCN(C)CC3)c(C(F)(F)F)c2)cc1C#Cc1cnc2ccnn2c1 | Criterion met
Cc1cn(-c2cc(NC(=O)c3ccc(C)c(C#Cc4cnc5ccnn5c4)c3)cc(C(C)(C)C)c2)cn1 | Criterion met

Could you now consider this next compound?
Q: Given "Cc1ccc(C(=O)Nc2cc(-n3ccnc3)cc(C(F)(F)F)c2)cc1C#Cc1cnc(NC2CC2)nc1" , state whether its pIC50 is at least 6.
Ans: Criterion not met

---

Test: Pharmacokinetics and bioavailability in rats
Assay type: in vivo
Settings: both sexes, Sprague-Dawley, rat, plasma, iv, 5 mg/kg, SD rats, IV 5 mg/kg
Experimental: Pharmacokinetics and bioavailability in rats. […] The blood samples were collected at the proper time points after administration, add heparin-anticoagulant, and the supernatants of the blood samples were collected (3000 rpm, 10 min) and stored at -20° C. for HPLC-MS analysis. […] The data were analyzed with software DAS2.0 to separately acquire the parameters of compartment models and non-compartment models. The bioavailability was calculated according to AUC data.
Counter-ions that a name gives are not always drawn.
Property Label: half-life (h)
Numbers only, in h.

Take a look at these entries with their results.
Cc1ccc(C(=O)Nc2cc(-n3ccnc3)cc(C(F)(F)F)c2)cc1C#Cc1cnc2[nH]ncc2c1 [D831 mesylate salt] | 5.24
Cc1cn(-c2cc(NC(=O)c3ccc(C)c(C#Cc4cnc5[nH]ncc5c4)c3)cc(C(F)(F)F)c2)cn1 [D767 hydrochloride salt] | 5.6
Cc1ncn(-c2cc(NC(=O)c3ccc(C)c(C#Cc4cnc5[nH]ncc5c4)c3)cc(C(F)(F)F)c2)n1 [D835 hydrochloride salt] | 16.9
Cc1ccc(C(=O)Nc2ccc(CN3CCN(C)CC3)c(C(F)(F)F)c2)cc1C#Cc1cnc2ccnn2c1 [D856 dimesylate salt] | 20
Cc1ccc(C(=O)Nc2ccc(CN3CCN(C)CC3)c(C(F)(F)F)c2)cc1C#Cc1cnc2[nH]ncc2c1 [D824 dimesylate salt] | 6.1

# ---- query compound ----
Q: Query (compound): Cc1ccc(C(=O)Nc2ccc(CN3CCN(C)CC3)c(C(F)(F)F)c2)cc1C#Cc1cnc(NC2CC2)nc1 [D825 mesylate salt, trimesylate] ; field requested: half-life
Ans: 11.7

---

Can you tell me pIC50 for the items I'm about to list?
Test system: MOLT-4 (Human acute lymphoblastic leukemia cell line)
Test: tumor cell proliferation, MTT or CCK8 assay, 72 h incubation
Assay type: cell-based
Conditions: MOLT-4, 72 h, read-out: IC50 on tumor cell proliferation, MOLT-4
pIC50: −log10 of the molar value.

Here is how some molecules turned out for pIC50.
Cc1cn(-c2cc(NC(=O)c3ccc(C)c(C#Cc4cnc(NC(C)C)nc4)c3)cc(C(F)(F)F)c2)cn1 [D752] | 4.90
CNc1ncc(C#Cc2cc(C(=O)Nc3cc(-n4cnc(C)c4)cc(C(F)(F)F)c3)ccc2C)cn1 [D800] | < 7.00
Cc1cn(-c2cc(NC(=O)c3ccc(C)c(C#Cc4cnc(N)nc4)c3)cc(C(F)(F)F)c2)cn1 [D803] | 6.88
Cc1cn(-c2cc(NC(=O)c3ccc(C)c(C#Cc4cnc(N5CCCCC5)nc4)c3)cc(C(F)(F)F)c2)cn1 [D797] | < 8.00
Cc1cn(-c2cc(NC(=O)c3ccc(C)c(C#Cc4cnc(NC5CCCCC5)nc4)c3)cc(C(F)(F)F)c2)cn1 [D828] | < 7.00

Q: Which pIC50 is listed for CCNc1ncc(C#Cc2cc(C(=O)Nc3cc(-n4cnc(C)c4)cc(C(F)(F)F)c3)ccc2C)cn1 [D755] ?
Ans: < 5.00

---

Target: BAF3-T315I cells (Ba/F3 cell line stably expressing BCR/ABL T315I) (Homo sapiens, UniProt P00519, T315I, cells depend on it)
Assay: tumor cell proliferation, MTT or CCK8 assay, 72 h incubation
Format: cell-based, mice
Settings: read-out: IC50 on tumor cell proliferation, BAF3-T315I cells; Ba/F3 expressing BCR/ABL T315I, 72 h, Table 1
So I've got a bunch of compounds here, and I need their GI50 values.
Hi, when you answer, please include the unit after the number. Thanks!

Cc1cn(-c2cc(NC(=O)c3ccc(C)c(C#Cc4cnc(NCCO)nc4)c3)cc(C(F)(F)F)c2)cn1 [D820] | 0.276 µM

For each listed entry, give its GI50.
1. Cc1cn(-c2cc(NC(=O)c3ccc(C)c(C#Cc4cnc(N5CCCCC5)nc4)c3)cc(C(F)(F)F)c2)cn1 [D797]
2. CNc1ncc(C#Cc2cc(C(=O)Nc3cc(-n4cnc(C)c4)cc(C(F)(F)F)c3)ccc2C)cn1 [D800]
3. Cc1cn(-c2cc(NC(=O)c3ccc(C)c(C#Cc4cnc(NC(C)C)nc4)c3)cc(C(F)(F)F)c2)cn1 [D752]

Ans:
["13 µM", "0.0998 µM", "1.03 µM"]
